Origin of the recorded values: patent US20040092720A1

Counts/minute bound values by entry
Biological target: T1, recombinant human IL-6 (human, UniProt P05231 30-212, labeled with radioactive iodine)
T1 construct: Labeled probe in solution, added to wells that carry the synthetic peptides; also called IL-6 ligand; Interleukin-6
Test: radioiodinated IL-6 on peptide array

# binder, endpoint_unit, Counts/minute bound
rows = [
    ("RAERSKTFT [Peptide C29]", "counts/minute", 1430),
    ("WAGMGRRLLLRSV [Peptide A25]", "counts/minute", 12200),
    ("SFYRLRFELRYRAERSKTFT [Peptide C18]", "counts/minute", 12800),
    ("AAGSHPSRWAGMGRRLLLRAV (alanine-scan variant of the domain I 21-mer) [Peptide A35]", "counts/minute", 11200),
    ("RFELRYRAERSKTFT [Peptide C23]", "counts/minute", 5310),
    ("KAVLLVRKFQNS [Peptide B27]", "counts/minute", 5600),
    ("SSFYRLRFELRYR [Peptide C9]", "counts/minute", 2170),
    ("VLLVRKFQNS [Peptide B29]", "counts/minute", 9100),
    ("AAGSHPSRWAG [Peptide A11]", "counts/minute", 1430),
    ("SSFYRLRAELRYRAERSKTFT (alanine-scan variant of the domain III 21-mer) [Peptide C46]", "counts/minute", 13400),
    ("PRSTPSLTTKAVALVRKFQNS (alanine-scan variant of the domain II 21-mer) [Peptide B42]", "counts/minute", 3840),
    ("SSFYRLRFELRYRAE [Peptide C7]", "counts/minute", 1820),
    ("PRSTPSLTTKAVLLVRKAQNS (alanine-scan variant of the domain II 21-mer) [Peptide B37]", "counts/minute", 11600),
    ("GRRLLLRSV [Peptide A29]", "counts/minute", 5370),
    ("AAGSHPSRWAGMGRRLLL [Peptide A4]", "counts/minute", 5280),
]
